# target.or.system: Retinal dehydrogenase 2 (Homo sapiens)
# experimental.protocol: qHTS for Inhibitors of the Aldehyde Dehydrogenase Family (ALDH1A2) Confirmation screens (AID 2061314); note: nearly all actives have a fitted effect of over 65% in size
# particulars: ALDH1A2 enzyme inhibition qHTS confirmation; series mostly up to 45.9 µM
Records with an inconclusive call do not appear. Active and inactive are the calls of the source. Calls come from the whole dose curve; as a rule, active = well fitted inhibition curve with a large enough effect; inconclusive = small, poorly fitted or top-dose-only effect; inactive = no such curve, though single readings can be large or run the other way.
Allowed answers: Y for active, N for inactive

Problem: Which outcome was assigned to CN(C)c1cccc(-c2cnc(N3CCC(C(N)=O)CC3)s2)c1 in this test?
Solution: N

Problem: Which outcome was assigned to CCC(=O)NC(c1cc(Cl)c2ccccc2c1O)C(C)C (stereo unspecified) in this test?
Solution: Y

Problem: Which outcome was assigned to Cc1ccc(S(=O)(=O)Nc2cc(S(=O)(=O)c3ccc(C)cc3)c(O)c3cccnc23)cc1 in this test?
Solution: Y

Problem: Which outcome was assigned to O=C(O)c1cc(Br)c(O)c2ncccc12 in this test?
Solution: Y

Problem: Which outcome was assigned to O=C(c1nccc2ccccc12)N1CCc2nc3cc[nH]n3c(=O)c2C1 in this test?
Solution: N

Problem: Which outcome was assigned to CCc1ccc(-c2nn3c(C)nnc3s2)cc1NC(=O)c1ccc(-c2cccc(Cl)c2)o1 in this test?
Solution: Y

Problem: Which outcome was assigned to COc1ccccc1-c1nc(-c2ccc(C(=O)O)cc2)no1 in this test?
Solution: N

Problem: Which outcome was assigned to Cc1ccc(CCN2C(=O)c3ccc(C(=O)O)cc3C2=O)cc1 in this test?
Solution: N

Problem: Which outcome was assigned to COc1ccc(C2Nc3ccccc3C(=O)N2Cc2ccccc2)cc1COc1ccc(C#N)cc1 (stereo unspecified) in this test?
Solution: Y

Problem: Which outcome was assigned to Nc1c(-c2ccncc2)cc[nH]c1=O in this test?
Solution: Y

Problem: Which outcome was assigned to Cc1ccc(S(=O)(=O)Nc2cccc3ccc[n+](C)c23)cc1 in this test?
Solution: Y

====

# experimental.protocol: BET inhibitor-based combinations targeting novel dependencies in MECOM-rearranged (r) AML: HNT-34 cell line (AID 2202234); note: nearly all actives have a fitted effect of over 35% in size
# particulars: HNT-34 AML viability, CellTiter-Glo luminescence, 48 h; series mostly up to 46 µM
Records with an inconclusive call do not appear. The source made the active and inactive calls. Calls follow the shape of the dose curve; as a rule, active = well fitted inhibition curve with a large enough effect; inconclusive = small, poorly fitted or top-dose-only effect; inactive = no such curve, though single readings can be large or run the other way.
Allowed answers: active, inactive

Problem: Which outcome was assigned to CC(C)n1c(/C=C/[C@H](O)C[C@H](O)CC(=O)O)c(-c2ccc(F)cc2)c2ccccc21 in this test?
Solution: active

Problem: Which outcome was assigned to CC(C)(O)[C@H]1CC[C@@](C)([C@H]2[C@@H](O)C[C@@]3(C)[C@@H]4C[C@H](O[C@@H]5O[C@H](CO)[C@@H](O)[C@H](O)[C@H]5O)[C@H]5C(C)(C)[C@@H](O[C@@H]6OC[C@@H](O)[C@H](O)[C@H]6O)CC[C@@]56C[C@@]46CC[C@]23C)O1 in this test?
Solution: inactive

Problem: Which outcome was assigned to COc1cc(/C=C/C(=O)CC(=O)/C=C/c2ccc(O)c(OC)c2)ccc1O in this test?
Solution: active

Problem: Which outcome was assigned to NC(=O)c1nc(F)c[nH]c1=O in this test?
Solution: inactive

Problem: Which outcome was assigned to Cc1[nH]c2ccccc2c1CCNCc1ccc(/C=C/C(=O)NO)cc1 in this test?
Solution: active

====

# target.or.system: Aldehyde dehydrogenase, mitochondrial (Homo sapiens)
# experimental.protocol: qHTS for Inhibitors of the Aldehyde Dehydrogenase Family (ALDH2) Primary screen (AID 2061308); note: nearly all actives have a fitted effect of over 55% in size
# particulars: ALDH2 enzyme inhibition qHTS, 1536-well; series mostly up to 56 µM
Results filed as inconclusive are left out. Activity calls are given as the source filed them. The call rests on the fitted dose curve; in most records, active means well fitted inhibition curve with a large enough effect; inconclusive means small, poorly fitted or top-dose-only effect; inactive means flat fitted curve, though single readings scatter.
reported.endpoint: outcome

Answered cases to consult:
Problem: Can you share its outcome? I mean this compound: COc1cccc2nc3sc(Nc4ccc5c(c4)CCC5)nn3c(=O)c12
Solution: inactive

Problem: Can you share its outcome? I mean this compound: C(=C\c1cccs1)/c1cccnc1
Solution: inactive

Problem: Can you share its outcome? I mean this compound: Cc1ccc(NC(=O)c2ccc(-c3nc4ccccc4[nH]3)cc2)cc1Br
Solution: inactive

Problem: Can you share its outcome? I mean this compound: COC(=O)c1ccc(O)c2ncc(-c3ccc(C(=O)N4CCNCC4)cc3)cc12
Solution: inactive

Problem: Can you share its outcome? I mean this compound: COc1ccc(C2c3c(n(CCCc4ccccc4)cnc3=N)Oc3ccc4ccccc4c32)cc1OC (stereo unspecified)
Solution: inactive

Problem: Can you share its outcome? I mean this compound: Cc1ccc(OCCn2c(CCNC(=O)c3ccc(C#N)cc3)nc3ccccc32)cc1
Solution: inactive

Problem: Can you share its outcome? I mean this compound: CC(Oc1ccc2[nH]nc(/C=C/c3cnn(CCO)c3)c2c1)c1c(Cl)cncc1Cl (stereo unspecified)
Solution: inactive

Problem: Can you share its outcome? I mean this compound: CCOC(=O)c1csc(-n2nc(-c3ccc(F)c(F)c3)c(Cc3ccc(S(N)(=O)=O)cc3)c2N)n1
Solution: inactive

Others:
Problem: Can you share its outcome? I mean this compound: Cc1ccccc1-c1ccc(=O)n(CC(=O)NCCc2ccccc2)n1
Solution: inactive

Problem: Can you share its outcome? I mean this compound: Fc1ccccc1N1CCN(c2nc(-c3cccs3)nc3ccccc23)CC1
Solution: inactive

Problem: Can you share its outcome? I mean this compound: Fc1cc(-c2nc(Nc3ccc(F)c(F)c3)c3ccccc3n2)ccn1
Solution: inactive

Problem: Can you share its outcome? I mean this compound: COc1cc2nc(-c3ccc(N4CCN(C)CC4)cc3)nc(NCCN3CCOCC3)c2cc1OC
Solution: inactive

Problem: Can you share its outcome? I mean this compound: CO/N=C(/C(=O)N[C@@H]1C(=O)N2C(C(=O)O)=C(Cn3nnc(C)n3)CS[C@H]12)c1csc(N)n1
Solution: inactive

Problem: Can you share its outcome? I mean this compound: Cc1ccc(S(=O)(=O)Nc2cnccc2C(=O)Nc2nc(-c3ccccc3F)cs2)cc1
Solution: inactive

Problem: Can you share its outcome? I mean this compound: CCCCNc1nc(C)nc2c1nc(-c1ccccc1)n2CCCN1CCCCC1C (stereo unspecified)
Solution: inactive

Problem: Can you share its outcome? I mean this compound: CC(=O)c1ccc(NC(=O)Nc2nnc(-c3ccncc3)s2)cc1
Solution: inactive

Problem: Can you share its outcome? I mean this compound: COc1cc(O)c(C(CC(=O)N2CCCC(C(=O)N3CCCCC3)C2)c2ccc3c(c2)OCO3)c(OC)c1 (stereo unspecified)
Solution: inactive

Problem: Can you share its outcome? I mean this compound: Cc1cccc(C)c1OCc1cccc(C2Nc3ccccc3C(=O)N2Cc2ccco2)c1 (stereo unspecified)
Solution: inactive

Problem: Can you share its outcome? I mean this compound: COc1ccc(C(=O)NC(c2ccco2)c2cc(Cl)c3cccnc3c2O)cc1 (stereo unspecified)
Solution: inactive

Problem: Can you share its outcome? I mean this compound: C=C1CC2OC(=O)C(=C)C2C(OC(=O)/C(C)=C\C)CC2(C)OC1=CC2=O (stereo unspecified)
Solution: inactive

Problem: Can you share its outcome? I mean this compound: C/C=C(\C)C(=O)OC1C[C@@]2(COC(C)=O)O[C@H]2/C=C\[C@@]2(C)O[C@@H]2[C@H]2OC(=O)C(COC(C)=O)=C12 (stereo partly specified)
Solution: inactive

Problem: Can you share its outcome? I mean this compound: C=C1C(=O)O[C@H]2C1CCC(C)=C1C(=O)C=C(C)[C@@]12O (stereo partly specified)
Solution: inactive

Problem: Can you share its outcome? I mean this compound: COc1ccccc1C1=Nn2c(nnc2-c2cccc(OC)c2OC)SC1
Solution: inactive

Problem: Can you share its outcome? I mean this compound: O=C(O)c1ccc(-c2noc(-c3ccccc3Cl)n2)cc1
Solution: inactive

Origin of measurements: PubChem BioAssay (NCATS)
